- target_or_test_system: human DGKζ (Homo sapiens (Human))
- Sequence (Q13574 other isoform, or with tags, fused parts or gaps): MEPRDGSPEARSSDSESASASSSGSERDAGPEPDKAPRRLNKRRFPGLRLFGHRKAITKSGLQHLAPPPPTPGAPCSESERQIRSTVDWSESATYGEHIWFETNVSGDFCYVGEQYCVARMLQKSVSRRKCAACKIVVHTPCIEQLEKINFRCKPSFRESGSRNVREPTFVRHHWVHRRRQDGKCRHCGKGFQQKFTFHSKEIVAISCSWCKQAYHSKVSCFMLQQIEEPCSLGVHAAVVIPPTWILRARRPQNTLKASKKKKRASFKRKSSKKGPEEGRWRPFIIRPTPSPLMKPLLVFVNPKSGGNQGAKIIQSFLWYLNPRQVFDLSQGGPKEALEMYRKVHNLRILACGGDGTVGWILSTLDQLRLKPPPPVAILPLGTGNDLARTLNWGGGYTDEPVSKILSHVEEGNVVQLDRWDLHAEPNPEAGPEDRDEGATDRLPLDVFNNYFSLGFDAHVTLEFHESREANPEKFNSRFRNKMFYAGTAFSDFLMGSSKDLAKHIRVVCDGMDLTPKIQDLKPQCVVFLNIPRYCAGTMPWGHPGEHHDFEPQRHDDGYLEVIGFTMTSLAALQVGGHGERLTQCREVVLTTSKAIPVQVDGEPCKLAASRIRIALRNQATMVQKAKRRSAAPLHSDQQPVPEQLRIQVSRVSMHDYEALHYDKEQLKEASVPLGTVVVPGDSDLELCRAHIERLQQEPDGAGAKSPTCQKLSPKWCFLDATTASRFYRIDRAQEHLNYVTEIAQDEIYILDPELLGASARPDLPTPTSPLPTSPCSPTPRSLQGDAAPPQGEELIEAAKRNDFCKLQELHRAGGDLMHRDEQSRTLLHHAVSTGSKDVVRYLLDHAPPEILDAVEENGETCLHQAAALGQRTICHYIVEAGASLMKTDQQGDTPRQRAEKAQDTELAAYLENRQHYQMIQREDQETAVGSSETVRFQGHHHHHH
- assay_explanation: DGKζ LIPGLO assay (extruded liposome substrate, ADP-Glo luminescence)
- Format: biochemical
- test_parameters: liposome assay; read-out: DGK zeta LIPGLO IC50
readout_label: IC50 (nM)

CC[C@H]1CN(C(C)c2ccc(CO)cc2)[C@H](CC)CN1c1nc(=O)n(C)c2ccc(C#N)nc12 (stereo partly drawn) [Example 271] : 12700
CCC(c1ccc(C(F)(F)F)nc1)N1C[C@H](CC)N(c2nc(=O)n(C)c3ccc(C#N)nc23)C[C@H]1CC (stereo partly drawn) [Example 225] : 4130
CCC(c1ccc(OC(F)F)cc1F)N1C[C@H](CC)N(c2nc(=O)n(C)c3ccc(C#N)nc23)C[C@H]1CC (stereo partly drawn) [Example 233] : 950

a: CC(c1ccc(OC(F)(F)F)c(F)c1)N1C[C@H](C)N(c2nc(=O)n(C)c3ccc(C#N)nc23)C[C@H]1C (single isomer, unassigned) [Example 161]
b: CC[C@@H]1CN(c2nc(=O)n(C)c3ccc(C#N)nc23)[C@@H](C)CN1C(c1ccc(F)cc1)c1cnc(C2CC2)s1 (single isomer, unassigned) [Example 104]
c: CC[C@@H]1CN(c2nc(=O)n(C)c3ccc(C#N)nc23)[C@@H](C)CN1C(C)c1ccc(C#N)cc1 (single isomer, unassigned) [Example 61]
Inquiry: Parameters: sort_field (IC50), sort_dir (desc). Order the labels as requested and give them as your answer.
Reply text: a, c, b
